- System: M14 melanoma
- PROCEDURE_TEXT: NCI tumour cell line growth inhibition, 48 h; in the data active means GI50 below about 0.43 µM; inactive means the rest
Labels: y for active, n for inactive

{"columns": ["MOLECULE", "CATEGORY_LABEL"],
 "data": [
  ["CCN(Cc1c(F)cccc1C(F)(F)F)c1ccc(CO)c(Cl)c1", "n"],
  ["Cc1ccc2c(c1)n([O-])c(C(F)(F)F)c(C(=O)c1ccco1)[n+]2=O", "n"],
  ["COc1ccc(C2CC(=O)Nc3c2c(C)nn3-c2nc3ccccc3[nH]2)cc1OC (configuration not stated)", "n"],
  ["O=C(O)[C@@H](Cc1ccccc1)NS(=O)(=O)c1ccc(-c2ccccc2)cc1", "n"],
  ["Cc1ccccc1N=C(c1ccccc1)C1C(=O)c2ccccc2C1=O", "n"],
  ["COC1C[C@H](O[C@@H]2C[C@H](O[C@@H]3C[C@H](O[C@@H]4C(=O)c5c(cc6cc(O[C@H]7C[C@@H](O[C@H]8C[C@@H](O)[C@H](O)C(C)O8)[C@H](O)C(C)O7)c(C)c(O)c6c5O)C[C@H]4C(OC)C(=O)[C@@H](O)[C@@H](C)O)OC(C)[C@H]3O)OC(C)[C@@H]2O)OC(C)[C@@H]1O (some centres not stated)", "y"],
  ["C=C1[C@H](O)C[C@@H](C(C)C(O)CC=C(C)C)[C@@H](O)[C@@H]2C(C)=CC[C@@H]12 (some centres not stated)", "n"],
  ["Nc1ncnc2c1ncn2Cc1ccc(CCl)cc1", "n"],
  ["O=C(Nc1cccc(Cl)c1)Nc1cc(C(F)(F)F)ccc1Cl", "n"],
  ["CC(=O)Nc1ccc2c(c1)[nH]c(=O)c1cc(NC(C)=O)ccc12", "n"],
  ["C#Cc1cccc(NC(=O)C2CCCCN2C(=O)CCl)c1 (configuration not stated)", "n"],
  ["C=C1C(=O)O[C@H]2[C@H]1CC/C(COC(=O)NCCc1ccc(Br)cc1)=C\\CC[C@@]1(C)O[C@@H]21", "n"],
  ["Clc1ccc(Nc2nnc(COc3ccccc3)c3ccccc23)cc1", "n"],
  ["Nc1nc(N)c2c(n1)NC(c1ccc(Cl)cc1)C1CCc3ccccc3C1=N2 (configuration not stated)", "n"],
  ["COc1cc2cc(C(=O)Nc3ccccc3)c(N)nc2cc1OC", "n"],
  ["CC(=O)OCc1cc[c]([Hg][Cl])o1", "n"],
  ["Fc1ccc(Nc2ccnc(N3CCN(c4ccnc5cc(Cl)ccc45)CC3)n2)cc1", "n"]
]}
